Test system: K4 kissing-loop RNA reporter;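 note: bound reporter read as fluorescence of individual clusters on recovered sequencing chips by microscopy, with normalized cluster intensities fitted with a binding model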
Experiment: apparent KD of K4 kissing-loop reporter; higher = weaker reporter binding
Settings: Eterna round: R107; input ligand: tryptophan 2.4 mM
ASSAY READOUT: apparent KD of K4 kissing-loop reporter (nM)
Field format: number, assumed nM, no unit text.

Worked cases, answers included:
{"SEQUENCE RECORD": "UGAUUGGCGAAAGUAGUGAUGUUACGAACAUAGGAUAUUAGAGGAAUAAGAAGGAUGAAUGAGAAAGGAAUAAAUUGUUGGUUGG [#08 K4 FMN A Same State]", "apparent KD of K4 kissing-loop reporter [nM]": 102}
{"SEQUENCE RECORD": "UAAGCUCUGACGGCCGCCACUGCACGUGAUCCAGUAGUGGCUAACAUGAGUGAUGUUCAUGUAAGCAGGACCGGGUCAGAGCUAA [KL-XTryp-B13 #analogue]", "apparent KD of K4 kissing-loop reporter [nM]": 120}

**Q:** Please look up its apparent KD of K4 kissing-loop reporter: CCGAAGAACCAGUGAUGUUGGUUGACUAGACAGGAUAUGAGCAACAUCAGAAGGGUCUGGCUUCGGGAGUGGGCCGCGCUGACCU [Artilati]
**A:** 395

**Q:** Need apparent KD of K4 kissing-loop reporter of GGAUAGGACAGAGGAUAUGGUAGUGAUGUUACCACGAGACAAAGUCUCGAAAAGCUACAAAGUAGCCCAGAAGGCUGUCCUAUCG [FmnBX 25 #SwitchBubble #StaticStem #Palindromic] , thanks.
**A:** 127

**Q:** // returns reported apparent KD of K4 kissing-loop reporter for input CGCCGCAAGGCGAGCGCUCCCACUCCGGAAGGAGCGCCCGAAAGGGCAGGUAGGUCGCCGGAGUGAUGUUCCGGUGGAGGGCUCG [#2 Exclusion - Arginine A Attempt #27 (Inspired by Omei)]
**A:** 529
